Entries and their pIC50
Tested on: HTT mRNA
Test Details: RT-qPCR splicing assay, HTT mRNA canonical (CJ) and alternative (AJ) junction
Type: cell-based, human
Cond: Homo sapiens, HTT canonical junction mRNA, RT-qPCR; read-out: HTT CJ (decrease in CJ mRNA levels, IC50)
pIC50: −log10 of the molar value.
Reported Metric: pIC50

# Compound, Reported Metric, Measured Value
rows = [
    ("Cn1cc2cc(-c3ccc4nc(N5CC[C@H](NC6(C)CC6)C5)ccc4n3)c(O)cc2n1", "pIC50", "> 7.00"),
    ("Cn1cc2cc(-c3ccc4nc(C5CCNCC5)ccc4n3)c(O)c(F)c2n1", "pIC50", "> 7.00"),
    ("CN1CCN(c2ccc3nc(-c4cc5cn(C)nc5cc4O)ccc3n2)CC1", "pIC50", "5.00 to 6.00"),
    ("Cn1cc2cc(-c3ccc4nc(N5CC(NC(C)(C)C)C5)ccc4n3)c(O)cc2n1", "pIC50", "5.00 to 6.00"),
    ("Cn1cc2cc(O)c(-c3ccc4nc(C5CCNCC5)ccc4n3)cc2n1", "pIC50", "5.00 to 6.00"),
    ("Cn1cc2cc(-c3ccc4nc(N5CC[C@@H](NCC6CC6)C5)ccc4n3)c(O)cc2n1", "pIC50", "6.00 to 7.00"),
    ("C[C@@H]1CN(c2ccc3nc(-c4cc5cn(C)nc5c(F)c4O)nc(C4CC4)c3c2)C[C@H](C)N1", "pIC50", "5.00 to 6.00"),
    ("Cn1cc2cc(-c3ccc4nc(C5CCNCC5)ccc4n3)c(O)cc2n1", "pIC50", "> 7.00"),
    ("Cn1cc2cc(-c3ccc4nc(N5CC[C@@H](NC6CCC6)C5)ccc4n3)c(O)c(F)c2n1 (single isomer, unassigned)", "pIC50", "> 7.00"),
    ("C[C@@H]1CN(c2ccc3nc(-c4cc5cn(C)nc5cc4O)ncc3c2)C[C@@H](C)N1", "pIC50", "5.00 to 6.00"),
    ("CNC(=O)c1nc(-c2cc3cn(C)nc3c(F)c2O)nc2ccc(N3CCC(N(C)C)CC3)cc12", "pIC50", "6.00 to 7.00"),
    ("Cc1nc2c(F)c(O)c(-c3ccc4nc(N5CC[C@H](NC6(CF)CC6)C5)ccc4n3)cc2o1 (single isomer, unassigned)", "pIC50", "> 7.00"),
    ("Cn1cc2cc(-c3ccc4nc(N5CC[C@@H](N[C@H]6C[C@H](F)C6)C5)ccc4n3)c(O)c(F)c2n1 (single isomer, unassigned)", "pIC50", "> 7.00"),
    ("Cc1c(O)c(-c2ccc3nc(N4CC[C@@H](NC5CC5)C4)ccc3n2)cc2cn(C)nc12", "pIC50", "> 7.00"),
    ("Cn1cc2c(O)c(-c3cc4ccc(C5CCNCC5)nc4cn3)cc(Br)c2n1", "pIC50", "5.00 to 6.00"),
]
